Value source: paper PMC5554167

# RUN_DESCRIPTION: Plasma OT after intestinal delivery of OT in pups (EIA)
# Assay type: in vivo, mice
# CONDITION_CONTEXT: both sexes, C57BL/6N, mouse, plasma, pups (PND5, Supplementary Fig. 1), 0.5 μg/pup into the small intestine, read-out: Time of peak plasma OT concentration (converted)
METRIC_NAME: Tmax

[[record]]
smiles_entry = "CC[C@H](C)[C@@H]1NC(=O)[C@H](Cc2ccc(O)cc2)NC(=O)[C@@H](N)CSSC[C@@H](C(=O)N2CCC[C@H]2C(=O)N[C@@H](CC(C)C)C(=O)NCC(N)=O)NC(=O)[C@H](CC(N)=O)NC(=O)[C@H](CCC(N)=O)NC1=O"
recorded_measurement = "10 min"


* * *

# RUN_DESCRIPTION: Plasma OT after oral delivery of OT in pups (EIA)
# Format: in vivo, mice
# CONDITION_CONTEXT: both sexes, C57BL/6N, 1 μg/mouse, wild-type pups PND6, oral 1 μg of OT/mouse, n = 5–8, read-out: Time of peak plasma OT concentration (converted)
METRIC_NAME: Tmax (min)

[[record]]
compound = "CC[C@H](C)[C@@H]1NC(=O)[C@H](Cc2ccc(O)cc2)NC(=O)[C@@H](N)CSSC[C@@H](C(=O)N2CCC[C@H]2C(=O)N[C@@H](CC(C)C)C(=O)NCC(N)=O)NC(=O)[C@H](CC(N)=O)NC(=O)[C@H](CCC(N)=O)NC1=O [OT, oxytocin]"
recorded_measurement = 10


* * *

# RUN_DESCRIPTION: LC-MS/MS of [Ile13C,15N]OT in plasma after oral administration to pups
# Format: in vivo, mice
# CONDITION_CONTEXT: mouse, in vivo, 1000 ng; wild-type PND3 pups 10 min after oral 100 µM × 10 μL; LC-MS/MS, corrected for dilution x10; n = 4; read-out: Estimated mean concentration in the blood
METRIC_NAME: level at 10 min (ng/mL)

[[record]]
compound = "CC[C@H](C)[C@@H]1NC(=O)[C@H](Cc2ccc(O)cc2)NC(=O)[C@@H](N)CSSC[C@@H](C(=O)N2CCC[C@H]2C(=O)N[C@@H](CC(C)C)C(=O)NCC(N)=O)NC(=O)[C@H](CC(N)=O)NC(=O)[C@H](CCC(N)=O)NC1=O [[Ile ^13C, ^15N]OT, isoleucine [Ile ^13C, ^15N] oxytocin]"
metric_name = "level at 10 min"
recorded_measurement = 346

